# protocol_details: Voxilaprevir Form VI single and multiple oral dose pharmacokinetics in healthy subjects
# Type: in vivo, human
# applied_conditions: human, plasma, oral, 30 mg, single dose 30 mg; median; read-out: tmax
measured_property: Tmax (h)
Number only, in h; omit the unit.

input: Please report the recorded Tmax for CC[C@@H]1[C@@H]2CN(C(=O)[C@H](C(C)(C)C)NC(=O)O[C@@H]3C[C@H]3CCCCC(F)(F)c3nc4ccc(OC)cc4nc3O2)[C@@H]1C(=O)N[C@]1(C(=O)NS(=O)(=O)C2(C)CC2)C[C@H]1C(F)F [voxilaprevir, Form VI] .
output: 4

* * *

# protocol_details: Voxilaprevir Form VI single and multiple oral dose pharmacokinetics in healthy subjects
# Type: in vivo, human
# applied_conditions: human, plasma, oral; multiple dose 30 mg; mean
measured_property: AUC (ng·h/mL)
Please state the figure in ng·h/mL; there is no need to write the unit.

input: What measured AUC goes with CC[C@@H]1[C@@H]2CN(C(=O)[C@H](C(C)(C)C)NC(=O)O[C@@H]3C[C@H]3CCCCC(F)(F)c3nc4ccc(OC)cc4nc3O2)[C@@H]1C(=O)N[C@]1(C(=O)NS(=O)(=O)C2(C)CC2)C[C@H]1C(F)F [voxilaprevir, Form VI] ?
output: 74.2

* * *

# protocol_details: Solubility (aqueous, spray-drying solvents)
# Assay type: physicochemical
# applied_conditions: acetone and dichloromethane, organic solvent or mixture; read-out: solubility in acetone and dichloromethane
measured_property: solubility

input: What value of measured solubility is listed for CC[C@@H]1[C@@H]2CN(C(=O)[C@H](C(C)(C)C)NC(=O)O[C@@H]3C[C@H]3CCCCC(F)(F)c3nc4ccc(OC)cc4nc3O2)[C@@H]1C(=O)N[C@]1(C(=O)NS(=O)(=O)C2(C)CC2)C[C@H]1C(F)F [voxilaprevir EAS, Form II] ?
output: > 300 mg/mL

* * *

# protocol_details: Voxilaprevir Form VI single and multiple oral dose pharmacokinetics in healthy subjects
# Type: in vivo, human
# applied_conditions: human, plasma, oral; multiple dose 100 mg; mean
measured_property: AUC (µg·h/mL)
State the answer as a number, implicitly in µg·h/mL.

input: Which AUC reading was recorded for the compound CC[C@@H]1[C@@H]2CN(C(=O)[C@H](C(C)(C)C)NC(=O)O[C@@H]3C[C@H]3CCCCC(F)(F)c3nc4ccc(OC)cc4nc3O2)[C@@H]1C(=O)N[C@]1(C(=O)NS(=O)(=O)C2(C)CC2)C[C@H]1C(F)F [voxilaprevir, Form VI] ?
output: 0.364

* * *

# protocol_details: Voxilaprevir Form VI single and multiple oral dose pharmacokinetics in healthy subjects
# Format: in vivo, human
# applied_conditions: human, plasma, oral; single dose 100 mg; mean
measured_property: AUC(0-t) (ng·h/mL)
Return type: number; implicit unit ng·h/mL.

input: # input compound: CC[C@@H]1[C@@H]2CN(C(=O)[C@H](C(C)(C)C)NC(=O)O[C@@H]3C[C@H]3CCCCC(F)(F)c3nc4ccc(OC)cc4nc3O2)[C@@H]1C(=O)N[C@]1(C(=O)NS(=O)(=O)C2(C)CC2)C[C@H]1C(F)F [voxilaprevir, Form VI] ; wanted: its AUC(0-t)
output: 188

* * *

# protocol_details: Velpatasvir single and multiple oral dose pharmacokinetics
# Format: in vivo, human
# applied_conditions: human, plasma, oral, 5 mg, single dose 5 mg; mean; read-out: Clast
measured_property: concentration at 24 h (ng/mL)
Field: numeric (ng/mL). Do not append units.

input: Need concentration at 24 h of COC[C@H]1C[C@@H](c2ncc(-c3ccc4c(c3)COc3cc5c(ccc6nc([C@@H]7CC[C@H](C)N7C(=O)[C@@H](NC(=O)OC)C(C)C)[nH]c65)cc3-4)[nH]2)N(C(=O)[C@H](NC(=O)OC)c2ccccc2)C1 [Velpatasvir] , thanks.
output: 1.4

* * *

# protocol_details: Voxilaprevir Form VI single and multiple oral dose pharmacokinetics in healthy subjects
# Format: in vivo, human
# applied_conditions: human, plasma, oral; single dose 30 mg; mean
measured_property: AUC(0-inf) (ng·h/mL)
# output: bare number, implied unit ng·h/mL

input: Look at this compound and give its reported AUC(0-inf). CC[C@@H]1[C@@H]2CN(C(=O)[C@H](C(C)(C)C)NC(=O)O[C@@H]3C[C@H]3CCCCC(F)(F)c3nc4ccc(OC)cc4nc3O2)[C@@H]1C(=O)N[C@]1(C(=O)NS(=O)(=O)C2(C)CC2)C[C@H]1C(F)F [voxilaprevir, Form VI]
output: 56.9

* * *

# protocol_details: Oral bioavailability of crystalline voxilaprevir forms in a dog model
# applied_conditions: in vivo, read-out: oral bioavailability, less than that of crystalline Form VI
# Experimental: As described previously, Form VIII of voxilaprevir is characterized by an X-ray powder diffractogram comprising the following peaks (±0.2°): at 7.8, 8.2, and 20.2°2θ, as determined on a diffractometer using Cu-Kα radiation.
measured_property: bioavailability

input: What value of bioavailability has been recorded for this entry: CC[C@@H]1[C@@H]2CN(C(=O)[C@H](C(C)(C)C)NC(=O)O[C@@H]3C[C@H]3CCCCC(F)(F)c3nc4ccc(OC)cc4nc3O2)[C@@H]1C(=O)N[C@]1(C(=O)NS(=O)(=O)C2(C)CC2)C[C@H]1C(F)F [crystalline Form VIII]
output: ~50%

* * *

# protocol_details: Voxilaprevir Form VI single and multiple oral dose pharmacokinetics in healthy subjects
# Type: in vivo, human
# applied_conditions: human, plasma, oral, 100 mg, multiple dose 100 mg; median
measured_property: half-life (h)
I only need the number, in h, no unit after it.

input: Which value of half-life has been reported for CC[C@@H]1[C@@H]2CN(C(=O)[C@H](C(C)(C)C)NC(=O)O[C@@H]3C[C@H]3CCCCC(F)(F)c3nc4ccc(OC)cc4nc3O2)[C@@H]1C(=O)N[C@]1(C(=O)NS(=O)(=O)C2(C)CC2)C[C@H]1C(F)F [voxilaprevir, Form VI] in the records?
output: 30.5

* * *

# protocol_details: Voxilaprevir Form VI single and multiple oral dose pharmacokinetics in healthy subjects
# Format: in vivo, human
# applied_conditions: human, plasma, oral, 30 mg, multiple dose 30 mg; median; read-out: tmax
measured_property: Tmax

input: // returns reported Tmax for input CC[C@@H]1[C@@H]2CN(C(=O)[C@H](C(C)(C)C)NC(=O)O[C@@H]3C[C@H]3CCCCC(F)(F)c3nc4ccc(OC)cc4nc3O2)[C@@H]1C(=O)N[C@]1(C(=O)NS(=O)(=O)C2(C)CC2)C[C@H]1C(F)F [voxilaprevir, Form VI]
output: 5 h

* * *

# protocol_details: Voxilaprevir Form VI single and multiple oral dose pharmacokinetics in healthy subjects
# Assay type: in vivo, human
# applied_conditions: human, plasma, oral; single dose 300 mg; mean
measured_property: AUC(0-t) (ng·h/mL)
A number alone suffices; assume ng·h/mL.

input: Please report the recorded AUC(0-t) for CC[C@@H]1[C@@H]2CN(C(=O)[C@H](C(C)(C)C)NC(=O)O[C@@H]3C[C@H]3CCCCC(F)(F)c3nc4ccc(OC)cc4nc3O2)[C@@H]1C(=O)N[C@]1(C(=O)NS(=O)(=O)C2(C)CC2)C[C@H]1C(F)F [voxilaprevir, Form VI] .
output: 425

* * *

# protocol_details: Voxilaprevir Form VI single and multiple oral dose pharmacokinetics in healthy subjects
# Type: in vivo, human
# applied_conditions: human, plasma, oral, 300 mg, multiple dose 300 mg; mean
measured_property: Cmax (ng/mL)
# value in ng/mL; strip the unit string

input: Entry CC[C@@H]1[C@@H]2CN(C(=O)[C@H](C(C)(C)C)NC(=O)O[C@@H]3C[C@H]3CCCCC(F)(F)c3nc4ccc(OC)cc4nc3O2)[C@@H]1C(=O)N[C@]1(C(=O)NS(=O)(=O)C2(C)CC2)C[C@H]1C(F)F [voxilaprevir, Form VI] : reported Cmax = ?
output: 155

* * *

# protocol_details: Solubility (aqueous, spray-drying solvents)
# Format: physicochemical
# applied_conditions: water; 37° C.; read-out: aqueous solubility
measured_property: solubility

input: What value of measured solubility is listed for CC(C)OC(=O)[C@@H](C)N[P@](=O)(OC[C@H]1O[C@@H](n2ccc(=O)[nH]c2=O)[C@](C)(F)[C@@H]1O)Oc1ccccc1 [sofosbuvir Form 6] ?
output: ≥ 2000 µg/mL

* * *

# protocol_details: Relative bioavailability study of voxilaprevir amorphous free acid tablets vs Form VI tablets in healthy subjects (fasted, fed)
# Assay type: in vivo, human
# applied_conditions: human, in vivo, oral, 100 mg, single dose 100 mg, healthy subjects, fasted (N = 15)
measured_property: AUC(0-inf) (ng·h/mL)
Number in ng·h/mL, nothing else.

input: Which AUC(0-inf) is listed for CC[C@@H]1[C@@H]2CN(C(=O)[C@H](C(C)(C)C)NC(=O)O[C@@H]3C[C@H]3CCCCC(F)(F)c3nc4ccc(OC)cc4nc3O2)[C@@H]1C(=O)N[C@]1(C(=O)NS(=O)(=O)C2(C)CC2)C[C@H]1C(F)F [Amorphous Free Acid] ?
output: 367
